Values from paper PMC12254355

Consider the following sequences; for each one, report its HC50.
tested on: human red blood cells; conditions: pH 7.4; note: unit not given here
Ends that are not written are not given here.
One number for each entry.

Study these solved cases before continuing.
{"columns": ["polymer.sequence", "assayed.system", "HC50"],
 "data": [
  ["ARKFKWGKLFSAGKKLLKKAKKLSKNK [Arachnoserver-11]", "human red blood cells", 1118.0],
  ["KWGKLFSAGKKLLKKAKKL [Arachnoserver-4]", "human red blood cells", "1.085e+083"],
  ["RLRAKMRNSKLFKLTKR [Conoserver-10]", "human red blood cells", "1.085e+083"],
  ["KKQIRLYLLKYYGKKSSSKSVRKIVISK [Arachnoserver-20]", "human red blood cells", 896.7],
  ["RFGSFLKKVWKSKLAKKL [UniprotKB-20]", "human red blood cells", 18147.0],
  ["KFLARLVFRKFILL [UniprotKB-13]", "human red blood cells", 455.9],
  ["KKWRELSRLSRVLQIL [Conoserver-14]", "human red blood cells", 1826.0],
  ["KLSGISKVLRAIAKFFK [Arachnoserver-28]", "human red blood cells", 38.2]
]}

For each entry beneath this line, provide reported HC50.
1. KWLKAMKSIAKFIAKKQMKKHL [Arachnoserver-32]
2. KNKRFIRNLRSNLYQKIIKSTKSLL [UniprotKB-14]
3. WLGSALKIGAKLL [UniprotKB-2]
4. RRVKRFKKFFMKLKKSVKKRVMKFFK [UniprotKB-5]

Output:
[19.2, "7.733e+045", "5.529e+042", 103.8]
